Molecular target: T1, HuMER (R26-A499) (human, UniProt Q12866 26-499)
T1 construct: Extracellular domain with both Ig-like and both fibronectin-like domains; also called human MerTK extracellular domain
T1 sequence: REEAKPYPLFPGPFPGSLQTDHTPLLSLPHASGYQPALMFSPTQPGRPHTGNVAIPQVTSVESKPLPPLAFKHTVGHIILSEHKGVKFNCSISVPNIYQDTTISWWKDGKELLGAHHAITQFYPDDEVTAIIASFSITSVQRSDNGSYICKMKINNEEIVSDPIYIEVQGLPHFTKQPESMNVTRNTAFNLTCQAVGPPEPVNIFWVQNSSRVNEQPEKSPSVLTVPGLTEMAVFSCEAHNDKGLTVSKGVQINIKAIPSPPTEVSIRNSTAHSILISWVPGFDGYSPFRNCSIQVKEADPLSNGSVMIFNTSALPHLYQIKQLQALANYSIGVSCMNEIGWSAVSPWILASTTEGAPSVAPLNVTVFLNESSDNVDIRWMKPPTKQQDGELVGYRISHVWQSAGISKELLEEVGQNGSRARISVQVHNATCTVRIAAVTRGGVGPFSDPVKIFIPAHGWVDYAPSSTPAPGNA
Assay: SPR BIAcore T200, Ab captured, 25C
observable: Kd (nM)
Kindly answer with a numeric value in nM, unit omitted.

I'd like to know its Kd. The binder in question is Rbt12H4 (antibody, V domains shown, Recombinant rabbit monoclonal antibody, Expi293, protein A purified) VH: QSVEESGGRLVTPGTPLTVTCTVSGFSLSVYGMGWVRQAPGKGLEYIGFINNVGNTYYASWAKGRFTISKTSTTVDLKITSPTTEDTATYFCAKGGGGDWGYFNIWGPGTLVTVSL VL: DVVMTQTPASVEAAVGGTVTIKCQASQSIGNALAWYQQKPGQRPKLLIYAASNLASGVPSRFAGSGSGTQFTLTISDLECADAATYYCQTYYAINRYGGAFGGGTEVVVK
18
